Overview of reported growth inhibition across a group of compounds:
Experiment: NCI Yeast Anticancer Drug Screen. Data for the mlh1 rad18 strain (AID 175)
Conditions: S. cerevisiae mlh1 rad18 strain growth inhibition; at 50.0 µM (retest, dose inferred, filed as 5.0); hits give high values
About 79,000 compounds went through this panel and 15% of them were active in at least one assay; those are over-represented in the sample as a whole.
observationType: growth inhibition (%)

[[record]]
compound = "CCOc1ccc(/C=C/[N+](=O)[O-])cc1[N+](=O)[O-]"
observationtype = "growth inhibition"
unittext = "%"
quantitativeresult = 99

[[record]]
compound = "O=[N+]([O-])c1cc([As](Br)c2ccc(O)c([N+](=O)[O-])c2)ccc1O"
observationtype = "growth inhibition"
unittext = "%"
quantitativeresult = 99

[[record]]
compound = "O=C(CCl)c1ccc(O)cc1"
observationtype = "growth inhibition"
unittext = "%"
quantitativeresult = 98

[[record]]
compound = "O=C(c1ccccc1)c1c(CC(O)c2ccccn2)n(C(=O)c2ccccc2)c2ccccc12 (stereo unspecified)"
observationtype = "growth inhibition"
unittext = "%"
quantitativeresult = 86

[[record]]
compound = "C=Cc1c2ccccc2cc2ccccc12"
observationtype = "growth inhibition"
unittext = "%"
quantitativeresult = 74

[[record]]
compound = "Cc1ccc2c(c1)C1(C)c3cc(C)ccc3SP1S2 (stereo unspecified)"
observationtype = "growth inhibition"
unittext = "%"
quantitativeresult = 74

[[record]]
compound = "CC(C)(C)OOC(=O)c1ccccc1"
observationtype = "growth inhibition"
unittext = "%"
quantitativeresult = 99

[[record]]
compound = "CC[C@@]1(O)CC(OC2CC(N3CCOCC3)C(O)C(C)O2)c2c(O)c3c(c(O)c2[C@H]1O)C(=O)c1cccc(O)c1C3=O (stereo partly specified)"
observationtype = "growth inhibition"
unittext = "%"
quantitativeresult = 98

[[record]]
compound = "Nc1nnc(N)n1-n1c(N)nnc1N"
observationtype = "growth inhibition"
unittext = "%"
quantitativeresult = 96

[[record]]
compound = "O=CNc1ccccc1.[Hg]"
observationtype = "growth inhibition"
unittext = "%"
quantitativeresult = 98

[[record]]
compound = "CC(C)(C)OC(=O)NC(CSC(c1ccccc1)(c1ccccc1)c1cccs1)C(=O)O (stereo unspecified)"
observationtype = "growth inhibition"
unittext = "%"
quantitativeresult = 99


* * *

Experiment: NCI Yeast Anticancer Drug Screen. Data for the wt2 strain (AID 169);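 also: 0% = growth of vehicle-treated yeast cultures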
Conditions: S. cerevisiae wt2 strain growth inhibition; at 100.0 µM; hits give high values
The panel holds about 79,000 compounds, 15% with a hit somewhere; the sample as a whole holds those more often.
observationType: growth inhibition (%)

[[record]]
compound = "CC(=O)O/C(=C1\\C[C@H]2[C@@H]3CC=C4C[C@@H](OC(C)=O)CC[C@]4(C)[C@H]3CC[C@]2(C)C1=O)C(F)(F)F"
observationtype = "growth inhibition"
quantitativeresult = 2

[[record]]
compound = "Cc1c([N+](=O)[O-])oc2ccc3ccccc3c12"
observationtype = "growth inhibition"
quantitativeresult = 26

[[record]]
compound = "CC[C@]1(O)CC(OC2CC(N(C)C)C(O)C(C)O2)c2c(cc3c(c2O)C(=O)c2c(O)cccc2C3=O)[C@@H]1C(=O)OC (some centres not stated)"
observationtype = "growth inhibition"
quantitativeresult = 97

[[record]]
compound = "Cn1cnc(N)c1C(=N)[Se]"
observationtype = "growth inhibition"
quantitativeresult = 87

[[record]]
compound = "CC[C@@]1(O)C[C@H](OC2CC(N(C)C)C(O)C(C)O2)c2c(O)c3c(c(O)c2[C@H]1OC1CC(N(C)C)C(O)C(C)O1)C(=O)c1cccc(O)c1C3=O (some centres not stated)"
observationtype = "growth inhibition"
quantitativeresult = 94

[[record]]
compound = "Nc1nnc(N)n1-n1c(N)nnc1N"
observationtype = "growth inhibition"
quantitativeresult = 1

[[record]]
compound = "C[N+]1(CCCl)CC[N+](C)(CCCl)CC1 (configuration not stated)"
observationtype = "growth inhibition"
quantitativeresult = 94

[[record]]
compound = "COc1cccc2c1C(=O)c1c(O)c3c(c(O)c1C2=O)C[C@@](O)(/C(C)=N\\O)C[C@@H]3OC1CC(N)C(O)C(C)O1 (some centres not stated)"
observationtype = "growth inhibition"
quantitativeresult = 37

[[record]]
compound = "C[C@]12CCC3[C@@H](CC[C@@H]4c5nonc5CC[C@]34C)C1CCC2=O (some centres not stated)"
observationtype = "growth inhibition"
quantitativeresult = 83

[[record]]
compound = "Nc1nc(N)c2c(Cl)c(CNc3ccc(C(=O)NC(CC(=O)O)C(=O)O)cc3)ccc2n1 (configuration not stated)"
observationtype = "growth inhibition"
quantitativeresult = 28

[[record]]
compound = "CC1CN1C1=C(Cl)C(=O)C(N2CC2C)=C(Cl)C1=O (configuration not stated)"
observationtype = "growth inhibition"
quantitativeresult = 98

[[record]]
compound = "C[C@]12CCC(=O)C=C1CC[C@@H]1C2CC[C@@]2(C)C1CC[C@@H]2OC(=O)C12OC1CCC2=O (some centres not stated)"
observationtype = "growth inhibition"
quantitativeresult = 96

[[record]]
compound = "O=S(=O)(O)/C(=C\\c1ccccc1)c1ccccc1 (tested in a mixture with another compound)"
observationtype = "growth inhibition"
quantitativeresult = -2

[[record]]
compound = "CCC1(OC(=O)CN)C(=O)OCc2c1cc1n(c2=O)Cc2cc3ccccc3nc2-1 (configuration not stated)"
observationtype = "growth inhibition"
quantitativeresult = 95

[[record]]
compound = "COc1ccc([N+]2=NC(c3ccc([N+](=O)[O-])cc3)=NN(c3ccccc3)C2)cc1"
observationtype = "growth inhibition"
quantitativeresult = 93

[[record]]
compound = "Cc1cccc(NC(=O)CBr)c1"
observationtype = "growth inhibition"
quantitativeresult = 99

[[record]]
compound = "O=C(O)C1C2CCC(C2)C1c1ccccc1 (configuration not stated)"
observationtype = "growth inhibition"
quantitativeresult = 37

[[record]]
compound = "CCOC(=O)C1([Se]c2ccccc2)CCCC1=O (configuration not stated)"
observationtype = "growth inhibition"
quantitativeresult = 88

[[record]]
compound = "Cc1c2ccccc2cc2ccccc12"
observationtype = "growth inhibition"
quantitativeresult = 99

[[record]]
compound = "Oc1ccc2nc3ccccc3nc2c1"
observationtype = "growth inhibition"
quantitativeresult = 73

[[record]]
compound = "c1c(N2CCOCC2)ssc1=[N+]1CCOCC1"
observationtype = "growth inhibition"
quantitativeresult = 1

[[record]]
compound = "O=c1c2ccccc2[se]n1-c1cccnc1"
observationtype = "growth inhibition"
quantitativeresult = 60

[[record]]
compound = "CC1=C[C@H]2O[C@@H]3C[C@H]4OC(=O)/C=C\\C=C\\C(C(C)O)OCC(O)C(C)CC(=O)OC[C@@]2(C[C@@H]1O)[C@]4(C)[C@@]31CO1 (some centres not stated)"
observationtype = "growth inhibition"
quantitativeresult = 98

[[record]]
compound = "O=[N+]([O-])c1cc([As](Br)c2ccc(O)c([N+](=O)[O-])c2)ccc1O"
observationtype = "growth inhibition"
quantitativeresult = 99

[[record]]
compound = "Nc1nc(N)c(-c2ccc(Cl)c(Cl)c2)c(CP(Cl)(Cl)(Cl)Br)n1"
observationtype = "growth inhibition"
quantitativeresult = 94

[[record]]
compound = "COC(=O)c1c(C)ccc2c(O)c3c(cc12)C(=O)c1c2c(cc(O)c1C3=O)C1(C)OC(C)(O2)C(O)C(N(C)C)C1O (configuration not stated)"
observationtype = "growth inhibition"
quantitativeresult = 94

[[record]]
compound = "CCN(CC)CCBr"
observationtype = "growth inhibition"
quantitativeresult = -3

[[record]]
compound = "c1ccc2cc3n[se]nc3cc2c1"
observationtype = "growth inhibition"
quantitativeresult = 95

[[record]]
compound = "O=[N+]([O-])c1ccc(N2CCC(CCCC3CCN(c4ccc([N+](=O)[O-])cc4[N+](=O)[O-])CC3)CC2)c([N+](=O)[O-])c1"
observationtype = "growth inhibition"
quantitativeresult = 39

[[record]]
compound = "C[CH2][Sn]1([CH2]C)[O]C2C(O)OC(CO)C(O)C2[O]1 (configuration not stated)"
observationtype = "growth inhibition"
quantitativeresult = 82

[[record]]
compound = "CCC1(O)C(=O)OCc2c1cc1n(c2=O)Cc2cc3cc(Cl)ccc3nc2-1 (configuration not stated)"
observationtype = "growth inhibition"
quantitativeresult = 47

[[record]]
compound = "CCOP(=S)(S)OCC.[Pd]"
observationtype = "growth inhibition"
quantitativeresult = 85

[[record]]
compound = "C=C[C@H]1CN2CC[C@H]1C[C@@H]2[C@@H](O)c1ccnc2ccccc12"
observationtype = "growth inhibition"
quantitativeresult = 1

[[record]]
compound = "CN(CCc1ccc(Br)cc1)CCN1CCCCC1"
observationtype = "growth inhibition"
quantitativeresult = 99

[[record]]
compound = "C/C(=N\\NC(N)=O)C(CN1CCOCC1)C(c1ccccc1)c1c(O)c2ccccc2oc1=O (configuration not stated)"
observationtype = "growth inhibition"
quantitativeresult = -4

[[record]]
compound = "CNC(=O)ON(C(C)=O)C(=O)NC"
observationtype = "growth inhibition"
quantitativeresult = -10

[[record]]
compound = "Nc1ccc(Cl)cc1C(=O)c1ccccc1"
observationtype = "growth inhibition"
quantitativeresult = 97

[[record]]
compound = "CN(N=O)C(=O)NNC(=O)N(C)N=O"
observationtype = "growth inhibition"
quantitativeresult = 49

[[record]]
compound = "COC(=O)C1c2cc3c(c(O)c2C(O)CC1(C)O)C(=O)c1c(O)cc2c(c1C3=O)OC1OC2(C)C(O)C(N(C)C)C1O (configuration not stated)"
observationtype = "growth inhibition"
quantitativeresult = 93

[[record]]
compound = "CNC(Cc1ccccc1)c1ccc(OC)c(OC)c1 (configuration not stated)"
observationtype = "growth inhibition"
quantitativeresult = -25

[[record]]
compound = "CCOC(=O)C1C2c3ccccc3C(c3ccccc32)C1C(=O)OCC (configuration not stated)"
observationtype = "growth inhibition"
quantitativeresult = 95

[[record]]
compound = "C[N+](C)(C)CC1CCCC(C[N+](C)(C)C)C1=O (configuration not stated)"
observationtype = "growth inhibition"
quantitativeresult = 94

